Reference source: the supplement of paper PMC10065799

# TESTED_ON: Grb2 SH2 (UniProt P62993)
# PROCEDURE_TEXT: SH2 binding enrichment of the phosphorylated peptide, bacterial display (enrichment ratio); higher = better substrate or ligand; peptides without Tyr show the background;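 also: peptide library displayed on the E. coli surface as eCPX fusions, selected cells deep-sequenced, score is each peptide's frequency after selection divided by its frequency in the input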
MEASURE: SH2 binding enrichment

Completed entries (count: 6):
NKYTTYLPRLP [C9orf24_Y126]; 0.905
SLMGCYNLTFM [HS6ST3_Y323_V320M]; 0.823
VNFDDYTVNLG [GFPT1_Y367]; 0.651
GKVADYIPQLP [GLS_Y249_A254P]; 0.724
LPKVSYMKAID [GLRA1_Y307_V308M]; 0.995
CDIPRYIVSQL [MAST2_Y461]; 0.744

(I) YYSSEYHCVGG [CTSC_Y345_Y347C]
(II) NTADYYDLYGG [PTPN11_Y63_G60A]
(III) KYVVVYFRETD [IL17RB_Y447_I451T]
Sort the 3 sequences by SH2 binding enrichment; largest first, smallest last. Respond with the label ranking, as requested.
III, II, I
(III: 2.28, II: 1.05, I: 0.726)
